- system-tested: mutant Bcl-2/iso1 protein (Bcl-2/iso1 residues 1-34, Bcl-xL loop residues 29-44, Bcl-2/iso1 residues 92-207; plasmid C) (human)
- assay-notes: competitive fluorescence polarization, displacement of a fluorescein-labeled peptide probe from Bcl-2 (340 nM)
pKd: −log10 of the molar value.
parameter-measured: pKd

Past entries and their recorded results:
In [3]: df
Out[3]:
                                     binder  experimental_value
0  NLPAAQRYGRELRRMSDEFVDSFKK [peptide … (SEQ ID NO:31)]                7.27
1  NLWAAQRYGRELRRMSDEFVDSFKK [peptide … (SEQ ID NO:20)]                7.85

A. QRYGRELRRMSDEFVDSFKK [peptide … (SEQ ID NO:35)]
B. NLWAAQRYGRELRRMSDEFVDSFKA [peptide … (SEQ ID NO:29)]
C. GGGAAQRYGRELRRMSDEFVDSFKK [peptide … (SEQ ID NO:30)]
D. NLWAAQRYGRELRRMSDEFVDSAKK [peptide … (SEQ ID NO:27)]
E. NLWGAQRYGRELRRMSDEFVDSFKK [peptide … (SEQ ID NO:24)]
## Task Task field, ranking: reported pKd, descending order. Output spec: labels arranged per the requested ranking.
## Result B, C, E, D, A
(B: 7.66, C: 7.20, E: 6.80, D: 6.40, A: 6.15)

The measured values listed here are drawn from patent US7226992B1.
